src = patent US10703733B2

Items are presented alongside their recorded pIC50.
target: MCL-1/Bim interaction (recombinant human MCL-1 protein, residues 171-327; biotinylated human Bim peptide, residues 51-76) (Homo sapiens (Human))
method_notes: MCL-1/Bim Binding AlphaLISA Assay
experimental_parameters: 0.0625 nM 6xHis-Mcl-1 (171-327), 0.0625 nM biotinylated-Bim peptide
// field semantics: pIC50 = negative decimal log of concentration (mol/L)

// worked examples, pIC50 included
Task: Data request, read-out pIC50, for CO[C@H]1/C=C/C[C@H](C)C[S@@](=O)(NC(=O)c2cnn(C3CC3)c2)=NC(=O)c2ccc3c(c2)N(C[C@@H]2CC[C@H]21)C[C@@]1(CCCc2cc(Cl)ccc21)CO3
Result: 10.44

Task: Item under review: CO[C@H]1/C=C/C[C@H](C)C[S@@](=O)(NC(=O)N2CC(N3CCOCC3)C2)=NC(=O)c2ccc3c(c2)N(C[C@@H]2CC[C@H]21)C[C@@]1(CCCc2cc(Cl)ccc21)CO3 . Reported pIC50?
Result: 10.59

Task: Which pIC50 is listed for COc1nn(C)cc1C(=O)N[S@@]1(=O)=NC(=O)c2ccc3c(c2)N(C[C@@H]2CC[C@H]2[C@@H](OC(=O)[C@@H](N)C(C)C)/C=C/C[C@H](C)[C@H]1C)C[C@@]1(CCCc2cc(Cl)ccc21)CO3 ?
Result: 9.90

Task: Would you mind telling me what pIC50 value was observed for COc1nn(C)cc1C(=O)N[S@@]1(=O)=NC(=O)c2ccc3c(c2)N(C[C@@H]2CC[C@H]2[C@@H](OC)/C=C/C[C@H](C)C1)C[C@@]1(CCCc2cc(Cl)ccc21)CO3 ?
Result: 10.30

Task: Entry CO[C@H]1/C=C/CCC[S@@](=O)(NC(=O)CCc2ncccn2)=NC(=O)c2ccc3c(c2)N(C[C@@H]2CC[C@H]21)C[C@@]1(CCCc2cc(Cl)ccc21)CO3 has what pIC50?
Result: 10.00

---
Task: Param item = COc1nn(C)cc1C(=O)N[S@@]1(=O)=NC(=O)c2ccc3c(c2)N(C[C@@H]2CC[C@H]2[C@@H](OC(=O)CN(C)C(=O)CNC(C)(C)C)/C=C/C[C@H](C)[C@H]1C)C[C@@]1(CCCc2cc(Cl)ccc21)CO3 ; retrieve measured pIC50.
Result: 10.24

Task: Would you kindly share the measured pIC50 for COc1nn(C)cc1C(=O)N[S@@]1(=O)=NC(=O)c2ccc3c(c2)N(C[C@@H]2CC[C@H]2[C@@H](OC)/C=C/[C@H](OCCN(C)C)[C@H](C)C1)C[C@@]1(CCCc2cc(Cl)ccc21)CO3 ?
Result: 10.23

Task: Param item = CO[C@H]1/C=C/C[C@H](C)C[S@@](=O)(NC(=O)[C@]23COCC2C3)=NC(=O)c2ccc3c(c2)N(C[C@@H]2CC[C@H]21)C[C@@]1(CCCc2cc(Cl)ccc21)CO3 (stereo partly shown) ; retrieve measured pIC50.
Result: 9.88

Task: GET /values?readout=pIC50&item= CO[C@H]1/C=C/CCC[S@@](=O)(NC(=O)c2cnn(C)c2)=NC(=O)c2ccc3c(c2)N(C[C@@H]2CC[C@H]21)C[C@@]1(CCCc2cc(Cl)ccc21)CO3
Result: 10.34

Task: Returns the measured pIC50 for the input compound. Input: CO[C@H]1/C=C/CCC[S@](=O)(NC(=O)[C@@H]2C[C@H]2c2ccnn2C)=NC(=O)c2ccc3c(c2)N(C[C@@H]2CC[C@H]21)C[C@@]1(CCCc2cc(Cl)ccc21)CO3
Result: 10.00

Task: GET /values?readout=pIC50&item= CC[C@H]1C/C=C/[C@H](OC)[C@@H]2CC[C@H]2CN2C[C@@]3(CCCc4cc(Cl)ccc43)COc3ccc(cc32)C(=O)N=[S@](=O)(NC(=O)c2cc3n(c2)CCOC3)C1
Result: 10.09

Task: Look up pIC50: CO[C@H]1/C=C/CCC[S@@](=O)(NC(=O)CCc2csc(C)n2)=NC(=O)c2ccc3c(c2)N(C[C@@H]2CC[C@H]21)C[C@@]1(CCCc2cc(Cl)ccc21)CO3
Result: 9.70

Task: Please report the recorded pIC50 for COc1nn(C)cc1C(=O)N[S@@]1(=O)=NC(=O)c2ccc3c(c2)N(C[C@@H]2CC[C@H]2[C@@H](OC)/C=C/[C@H](OC)CC1)C[C@@]1(CCCc2cc(Cl)ccc21)CO3 .
Result: 10.15

Task: Can you share its pIC50? I mean this compound: CO[C@H]1/C=C/C[C@H](C)[C@@H](C)[S@](N)(=O)=NC(=O)c2ccc3c(c2)N(C[C@@H]2CC[C@H]21)C[C@@]1(CCCc2cc(Cl)ccc21)CO3 (single isomer, unassigned)
Result: 8.58

Task: What measured pIC50 goes with COc1ncc(C(=O)N[S@@]2(=O)=NC(=O)c3ccc4c(c3)N(C[C@@H]3CC[C@H]3[C@@H](OC)/C=C/C[C@H](C)C2)C[C@@]2(CCCc3cc(Cl)ccc32)CO4)c(OC)n1 ?
Result: 10.00

Task: // lookup pIC50 for CO[C@H]1/C=C/C[C@H](C)C[S@@](=O)(NC(=O)N[C@@H]2C[C@H]2c2ccnn2C)=NC(=O)c2ccc3c(c2)N(C[C@@H]2CC[C@H]21)C[C@@]1(CCCc2cc(Cl)ccc21)CO3
Result: 9.84

Task: So what's the measured pIC50 for this one? COc1ccc(C(=O)N[S@@]2(=O)=NC(=O)c3ccc4c(c3)N(C[C@@H]3CC[C@H]3[C@@H](OC)/C=C/C[C@H](C)C2)C[C@@]2(CCCc3cc(Cl)ccc32)CO4)cc1
Result: 10.09

Task: Look up pIC50 for this compound: CO[C@H]1/C=C/CCC[S@@](=O)(NC(=O)CCn2cccn2)=NC(=O)c2ccc3c(c2)N(C[C@@H]2CC[C@H]21)C[C@@]1(CCCc2cc(Cl)ccc21)CO3
Result: 10.00

Task: Report pIC50 for CCC(=O)N[S@@]1(=O)=NC(=O)c2ccc3c(c2)N(C[C@@H]2CC[C@H]2[C@@H](OCCN2CCOCC2)/C=C/CCC1)C[C@@]1(CCCc2cc(Cl)ccc21)CO3 (single isomer, unassigned) please.
Result: 8.92

---

pIC50 values, listed per item
target: MCL-1/Bim interaction (recombinant human MCL-1 protein, residues 171-327; biotinylated human Bim peptide, residues 51-76) (Homo sapiens (Human))
method_notes: MCL-1/Bim Binding AlphaLISA Assay
experimental_parameters: 0.0625 nM 6xHis-Mcl-1 (171-327), 0.0625 nM biotinylated-Bim peptide
By convention, pIC50 is the negative base-10 log of a molar concentration.

Consider the following illustrative entries.
Task: Quick check: pIC50 of CO[C@H]1/C=C/CCC[S@@](=O)(NC(=O)c2cc3ccccc3n2C)=NC(=O)c2ccc3c(c2)N(C[C@@H]2CC[C@H]21)C[C@@]1(CCCc2cc(Cl)ccc21)CO3 ?
Result: 9.52

Task: Could you share which pIC50 value was measured for CO[C@H]1/C=C/C[C@H](C)C[S@@](=O)(NC(=O)c2ccn(C)c2)=NC(=O)c2ccc3c(c2)N(C[C@@H]2CC[C@H]21)C[C@@]1(CCCc2cc(Cl)ccc21)CO3 ?
Result: 10.29

Let us move to another entry and its pIC50.
Task: Need pIC50 of CO[C@H]1/C=C/C[C@H](C)C[S@@](=O)(NC(=O)Nc2ccccn2)=NC(=O)c2ccc3c(c2)N(C[C@@H]2CC[C@H]21)C[C@@]1(CCCc2cc(Cl)ccc21)CO3 , thanks.
Result: 9.65

---

target: MCL-1/Bim interaction (recombinant human MCL-1 protein, residues 171-327; biotinylated human Bim peptide, residues 51-76) (Homo sapiens (Human), UniProt Q07820)
Sequence (Q07820 171-327): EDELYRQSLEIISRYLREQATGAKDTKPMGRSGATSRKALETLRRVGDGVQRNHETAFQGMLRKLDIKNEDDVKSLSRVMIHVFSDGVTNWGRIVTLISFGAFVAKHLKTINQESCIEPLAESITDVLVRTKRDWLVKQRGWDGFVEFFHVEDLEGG
method_notes: MCL-1/Bim Binding AlphaLISA Assay
experimental_parameters: 0.0625 nM 6xHis-Mcl-1 (171-327), 0.0625 nM biotinylated-Bim peptide
# IC50 per entry
Respond numerically; units are nM and should not be typed.

Check out these entries, answers already filled in.
Task: Tell me the measured IC50 of CO[C@H]1/C=C/C[C@H](C)C[S@@](=O)(NC(=O)c2cnoc2)=NC(=O)c2ccc3c(c2)N(C[C@@H]2CC[C@H]21)C[C@@]1(CCCc2cc(Cl)ccc21)CO3 , please.
Result: 0.147

Task: Consider the compound COCCCn1cc(C(=O)N[S@@]2(=O)=NC(=O)c3ccc4c(c3)N(C[C@@H]3CC[C@H]3[C@@H](OC)/C=C/C[C@H](C)C2)C[C@@]2(CCCc3cc(Cl)ccc32)CO4)cc1COC and give its measured IC50.
Result: 0.09

Task: What value of measured IC50 is listed for CO[C@H]1/C=C/C[C@H](C)C[S@@](=O)(NC(=O)NC23COC(C)(C2)C3)=NC(=O)c2ccc3c(c2)N(C[C@@H]2CC[C@H]21)C[C@@]1(CCCc2cc(Cl)ccc21)CO3 ?
Result: 0.031

Task: Item under review: CO[C@H]1/C=C/C[C@H](C)C[S@@](=O)(NC(=O)c2cc3ccncn3c2)=NC(=O)c2ccc3c(c2)N(C[C@@H]2CC[C@H]21)C[C@@]1(CCCc2cc(Cl)ccc21)CO3 . Reported IC50?
Result: 0.263

API: the following record is the query input.
Task: Any idea what its IC50 is? The compound is CCC(=O)N[S@@]1(=O)=NC(=O)c2ccc3c(c2)N(C[C@@H]2CC[C@H]2[C@@H](OCCN2CCN(C)CC2)/C=C/CCC1)C[C@@]1(CCCc2cc(Cl)ccc21)CO3
Result: 46.9
